test: qHTS Assay for Lipid Storage Modulators in Drosophila S3 Cells; conditions: BODIPY lipid droplet fluorescence, 18-24 h, cells fed with added oleic acid; series mostly up to 46.1 µM
About 2,100 (0.66%) of roughly 320,000 compounds were called active. Roughly 53% stayed inconclusive and do not appear here. Calls come from the whole dose curve; as a rule, active = well fitted inhibition curve with a large enough effect in the signal ratio, with a control signal flat (not every such curve was filed as active); inconclusive = small, poorly fitted or top-dose-only effect, or effect the other way, or a change in a side signal; inactive = flat fitted curve, though single readings scatter; the % refers to the signal ratio. Many of the other results were omitted from the sample, so actives are more common in it than they were.
Write down one outcome, taken from active, inactive

Reference set (5 entries):
| compound | class_label |
| --- | --- |
| CC12CN(S(=O)(=O)c3ccccc3)CC(C)(CN(S(=O)(=O)c3ccccc3)C1)C2 | inactive |
| CC(C)(C)C(=O)NCCN1C(=O)S/C(=C\c2ccc([N+](=O)[O-])cc2)C1=O | active |
| Cc1ccc(C(=O)NCc2ccco2)cc1S(=O)(=O)N1CCCC1 | inactive |
| COc1ccccc1/C=C/C(=O)OCC(=O)NCc1ccco1 | inactive |
| Clc1ccc(N2CCN(Cc3ccco3)CC2)cc1 | inactive |

Assay result, entry `Cc1cccc(NC(=O)CSc2nnnn2C)n1` — outcome?
inactive

Cool, now CC1CCC(N2CCN(c3ccc([N+](=O)[O-])cc3)CC2)CC1 (stereo unspecified)
inactive

Okay, and CCN(C(=O)COC(=O)/C=C/c1ccc(O)c(OC)c1)C1CCS(=O)(=O)C1 (stereo unspecified) ?
active

Try this compound too: `CC(C)[C@H](NS(=O)(=O)c1ccccc1)C(=O)OCn1nnc2ccccc2c1=O`
inactive

And what about the compound CCOC(=O)C1(Cc2cccc(Cl)c2)CCCN(C(=O)c2cc(C)on2)C1 (stereo unspecified) ?
inactive

Field entry: `Cc1cc(C)cc(NC(=O)CN2CCN(c3ncccn3)CC2)c1`
inactive

====

test: qHTS Assay for Lipid Storage Modulators in Drosophila S3 Cells; conditions: BODIPY lipid droplet fluorescence, 18-24 h, cells fed with added oleic acid; series mostly up to 46.1 µM; note: potency is the fitted concentration of half-maximal effect
About 2,100 (0.66%) of roughly 320,000 compounds were called active. Another 53% or so got no clear call; they are omitted. What follows is part of a selection rich in actives, with near analogues and random picks from the rest.
quantity_kind: Potency

Observe how each entry below is paired with its result.
| mol_smiles | reported_measurement |
| --- | --- |
| CCN(CC)S(=O)(=O)c1cc(OC)c(Cl)cc1OC | inactive |
| Cc1ccc(NC(=O)c2cccc(C(F)(F)F)c2)cc1NC(=O)c1[nH]cnc1C(N)=O | 517 nM (active) |
| COc1ccc(C)cc1NC(=O)c1ccccc1NS(=O)(=O)c1cccc2cccnc12 | inactive |
| CCc1cc(C(=O)Nc2ncccc2O)sc1C | inactive |

We next turn to a different compound, shown below.
Quick check: Potency of `CCc1cc(C(=O)Nc2nc(-c3ccccn3)cs2)sc1C` ?
5170 nM (active)

====

The reader will find reported cell number change values listed item by item below.
experiment: qHTS Assay for Lipid Storage Modulators in Drosophila S3 Cells; settings: BODIPY lipid droplet fluorescence, 18-24 h, cells fed with added oleic acid; measured here: cell count max response;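 for cell number change: cells counted by Cell Tracker Red CMTPX staining in the red channel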
About 2,100 (0.66%) of roughly 320,000 compounds were called active. Inconclusive results (about 53%) are left out. The entries come from a sample that favours actives as a whole.
Give your result in % as a bare value.

| mol_smiles | cell number change (%) |
| --- | --- |
| CC(C)CNC(=O)c1ccc(Cl)c(Cl)c1 | -14.4 |
| COc1ccc(N=C2S/C(=C\c3cc(C)n(C)c3C)C(=O)N2C)cc1 | 20.4 |
| COc1ccc(N2CCN(C(=O)COC(=O)c3ccco3)CC2)cc1 | 6.24 |
| O=C(Cc1ccc(Cl)cc1)NNS(=O)(=O)c1ccc([N+](=O)[O-])cc1 | 7.62 |
| O=C(NCCCN1CCCC1=O)c1cc(S(=O)(=O)N2CCOCC2)ccc1Cl | 15 |
| CCOc1cc(C(=S)N2CCN(C)CC2)ccc1OCC(=O)N1CCOCC1 | -0.877 |

Tell me the measured cell number change of `COCCNC(=O)CCCn1c(=O)c2cc(OC)c(OC)cc2n(CC(=O)c2ccc(Cl)cc2)c1=O` , please.
-4.78

====

Test: qHTS Assay for Lipid Storage Modulators in Drosophila S3 Cells; note: potency is the fitted concentration of half-maximal effect
Conditions: BODIPY lipid droplet fluorescence, 18-24 h, cells fed with added oleic acid; series mostly up to 46.1 µM
Description: NIH Molecular Libraries Probe Production Centers Network [MLPCN] NIH Chemical Genomics Center [NCGC] […] Triacsin C (Sigma-Aldrich T-4540), an inhibitor of long-chain fatty acyl CoA synthetase that blocks synthesis of triglycerides, was used as a positive control for lipid under-storage. […] Fluorescence was detected by excitation of the fluorophores with a 488-nm laser on an Acumen Explorer (TTP Lab Tech). […] Cells were detected using channel 3 (575-640 nm) with 5-um width and 100-um depth filters. […]
The whole screen tested about 320,000 compounds, of which about 2,100 (0.66%) were called active. Inconclusive results (about 53%) are left out. Many of the other results were omitted from the sample, so actives are more common in it than they were.
quantity_kind: Potency

# example entries with known answers
| molecule | Potency |
| --- | --- |
| Cc1ccc(-c2cccc(C3CC=CC4C3C(=O)N(Cc3ccccc3)C4c3ccc(C(F)(F)F)cc3)c2)cc1 (stereo unspecified) | inactive |
| O=C(c1ccc(OC2CCN(CCc3ccccc3)CC2)cc1)N1CCCC(CO)C1 (stereo unspecified) | inactive |
| CCC(C)c1ccc(S(=O)(=O)N2CCN3CCCC3C2)cc1 (stereo unspecified) | inactive |
| COc1ccc(Cl)cc1NC(=O)COC(=O)CNC(=O)c1ccc([N+](=O)[O-])c(C)c1 | inactive |
| CCC(c1nnc(SCC(=O)Nc2ccc(N3CCOCC3)cc2)n1Cc1ccccc1)N(C)C (stereo unspecified) | inactive |
| Cc1ccc(NS(=O)(=O)c2ccc3c(c2)N(C)CCO3)cc1 | inactive |
| COc1ccc(-c2c(=O)n(OCc3nc4ccccc4[nH]3)c3ccccc3[n+]2[O-])cc1 | inactive |
| COc1ccc(C)cc1NS(=O)(=O)c1ccc2c(c1)N(C(C)=O)CCO2 | inactive |
| CCS(=O)(=O)c1nc(S(=O)(=O)c2ccc(C)cc2)c(NCCN2CCOCC2)s1 | inactive |
| COCCNC(=O)CN(C(=O)Cn1nnc2ccccc21)c1ccc(C)c(F)c1 | inactive |

We now examine a further molecule.
Reported Potency for C[C@H](NC(=O)[C@H]1N2C(=O)c3ccccc3C2SC1(C)C)C(=O)N1CCC[C@H]1C(=O)O (stereo partly specified) : what is it?
inactive

====

test: qHTS Assay for Lipid Storage Modulators in Drosophila S3 Cells; conditions: BODIPY lipid droplet fluorescence, 18-24 h, cells fed with added oleic acid; measured here: cell count max response;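 for cell number change: cells counted by Cell Tracker Red CMTPX staining in the red channel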
Among all 320,000 compounds or so, about 2,100 (0.66%) were called active. Roughly 53% stayed inconclusive and do not appear here. The sample as a whole holds a higher share of actives than the screen did.
Listing of entries alongside the reported cell number change.
Numbers only here, please. The scale is %.

# example entries with known answers
| molecule | unit_abbreviation | reported_measurement |
| --- | --- | --- |
| Cc1cc(=O)[nH]c(SCC2(O)C3CC4CC(C3)CC2C4)n1 (stereo unspecified) | % | -7.4 |
| Cc1ccc(NC(=O)CCC(=O)OCCCC(F)(F)C(F)(F)F)cc1 | % | -12.9 |
| Cc1ccccc1NC(=O)CCC(=O)OCCCC(F)(F)C(F)(F)F | % | 12.7 |
| Cc1ccccc1OC(=O)CCC(=O)OCCCC(F)(F)C(F)(F)F | % | 10.2 |
| COc1ccc(C(CC(=O)O)NS(=O)(=O)c2ccc(C)cc2)cc1 (stereo unspecified) | % | 9.41 |
| CC(C)(C)OC(=O)N1CCC(C(=O)O)CC1 | % | 14 |
| COc1cc2c(cc1OC)C1O[C@](CCCCN3C(=O)c4ccccc4C3=O)(C2)Oc2c1c(=O)oc1ccc(F)cc21 | % | -5.97 |
| N#C/C(=C\c1c[nH]c2ccccc12)c1nnc2n1CCCCC2 | % | 6.3 |

Requested read-out: cell number change. Entry: `CCOc1ccccc1C(=O)Nc1ccc(S(=O)(=O)Nc2nccc(C)n2)cc1`
-4.06

// repeat for `CCc1ccc(NC(=O)CSc2nc(-c3ccc(C)cc3)nc3c2Cc2c(CO)cnc(C)c2O3)cc1` and report
-9.8

Another molecule: `O=C(O)c1cccc(S(=O)(=O)Nc2ccc3oc(=O)sc3c2)c1`
4.14

====

assay: qHTS Assay for Lipid Storage Modulators in Drosophila S3 Cells; conditions: BODIPY lipid droplet fluorescence, 18-24 h, cells fed with added oleic acid; measured here: cell count max response;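 for cell number change: cells counted by Cell Tracker Red CMTPX staining in the red channel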
The whole screen tested about 320,000 compounds, of which about 2,100 (0.66%) were called active. Not shown: some 53% with an inconclusive outcome. Shown is part of a subset that was picked to be rich in actives.
Overview of recorded cell number change for various compounds
# number only, unit % dropped from output

Would you mind telling me what cell number change value was observed for `NS(=O)(=O)c1ccc(N=Nc2c(O)c(C(=O)O)cc3ccccc23)cc1` ?
-8.07

Likewise for `Cc1cc(/C=C2\SC(=S)N(Cc3ccco3)C2=O)c(C)n1-c1ccccc1` ?
-3.86

Request: `Clc1ccc(Cn2ncc3c(N4CCCC4)ncnc32)cc1`
-16
